tested target: soluble guanylate cyclase (sGC) (Homo sapiens, UniProt Q02108+Q02153)
Construct: endogenously expressing soluble guanylate cyclase (sGC); endogenous in cells; host or cells: HEK293
Sequence (Q02153 1-619): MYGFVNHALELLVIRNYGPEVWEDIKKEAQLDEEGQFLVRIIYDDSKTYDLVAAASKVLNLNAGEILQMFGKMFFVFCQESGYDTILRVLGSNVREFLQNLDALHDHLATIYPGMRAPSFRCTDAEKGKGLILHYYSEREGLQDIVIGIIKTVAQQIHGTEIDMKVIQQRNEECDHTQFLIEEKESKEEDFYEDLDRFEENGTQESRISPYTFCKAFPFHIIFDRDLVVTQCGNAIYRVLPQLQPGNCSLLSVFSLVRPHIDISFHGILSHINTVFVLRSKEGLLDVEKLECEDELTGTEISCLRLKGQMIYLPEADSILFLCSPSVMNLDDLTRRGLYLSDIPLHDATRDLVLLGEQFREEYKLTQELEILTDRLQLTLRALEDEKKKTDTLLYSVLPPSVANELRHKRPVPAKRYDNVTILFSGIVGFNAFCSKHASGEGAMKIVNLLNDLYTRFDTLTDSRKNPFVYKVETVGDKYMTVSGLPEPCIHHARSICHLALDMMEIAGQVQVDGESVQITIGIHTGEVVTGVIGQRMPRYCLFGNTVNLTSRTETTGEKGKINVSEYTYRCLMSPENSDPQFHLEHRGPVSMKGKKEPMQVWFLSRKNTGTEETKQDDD
Sequence (Q02108 1-690): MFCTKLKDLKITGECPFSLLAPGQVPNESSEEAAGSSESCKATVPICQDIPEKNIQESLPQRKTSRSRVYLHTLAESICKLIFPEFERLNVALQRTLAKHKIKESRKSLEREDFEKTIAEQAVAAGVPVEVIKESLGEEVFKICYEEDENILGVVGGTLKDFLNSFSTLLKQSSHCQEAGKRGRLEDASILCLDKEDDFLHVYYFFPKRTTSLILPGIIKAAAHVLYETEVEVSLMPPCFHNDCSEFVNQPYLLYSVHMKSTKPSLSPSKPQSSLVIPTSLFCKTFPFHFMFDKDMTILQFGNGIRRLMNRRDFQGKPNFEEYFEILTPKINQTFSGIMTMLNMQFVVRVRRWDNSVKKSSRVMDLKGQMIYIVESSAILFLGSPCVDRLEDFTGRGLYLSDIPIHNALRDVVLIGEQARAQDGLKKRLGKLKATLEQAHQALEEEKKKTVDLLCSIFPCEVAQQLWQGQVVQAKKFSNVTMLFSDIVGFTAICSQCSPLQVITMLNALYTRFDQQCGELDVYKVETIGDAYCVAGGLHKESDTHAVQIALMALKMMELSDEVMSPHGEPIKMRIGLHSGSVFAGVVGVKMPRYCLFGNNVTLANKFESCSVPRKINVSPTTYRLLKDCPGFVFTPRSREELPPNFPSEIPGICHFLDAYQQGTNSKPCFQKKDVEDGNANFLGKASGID
protocol text: sGC-HEK-cGMP assay (run with SNP incubation)
Format: cell-based
experimental parameters: concentration that would elicit 10% of the Emax in the presence of 10 μM SNP; Table 3D
Protocol: Biological Activity Measurement by the sGC-HEK-cGMP Assay (Assay Run with SNP Incubation) Human embryonic kidney cells (HEK293), endogenously expressing soluble guanylate cyclase (sGC), were used to evaluate the activity of test compounds. Compounds stimulating the sGC receptor should cause an increase in the intracellular concentration of cGMP. […] EC50 values were calculated from concentration-response curves generated with GraphPad Prism Software.

>  <compound>
CC1(C(=O)Nc2cnc(-c3cc(-c4ncco4)n(Cc4ccccc4F)n3)nc2N)CC1(F)F (stereo not shown) [Compound 55]

>  <HEK MEC-10>
C (0.1 to <1 μM)

$$$$
>  <compound>
CCCCCCCCCCC(=O)Nc1cnc(-c2cc(-c3ccon3)n(Cc3ccccc3F)n2)nc1N [Compound 58]

>  <HEK MEC-10>
E (10 to 50 μM)

$$$$
>  <compound>
CC1(C(=O)Nc2cnc(-c3cc(-c4ccon4)n(Cc4cccc(F)c4F)n3)nc2N)CC1 [Compound 10]

>  <HEK MEC-10>
A (0.001 to <0.01 μM)

$$$$
>  <compound>
Oc1nc(-c2cc(-c3ccon3)n(Cc3cccc(F)c3F)n2)ncc1F [Compound 1]

>  <HEK MEC-10>
B (0.01 to <0.1 μM)

$$$$
>  <compound>
Oc1nc(-c2cc(-c3ccon3)n(Cc3ccccc3)n2)ncc1F [Compound 41]

>  <HEK MEC-10>
B (0.01 to <0.1 μM)

$$$$
>  <compound>
Oc1nc(-c2cc(-c3ncco3)n(Cc3ccccc3F)n2)ncc1Sc1ccccc1 [Compound 20]

>  <HEK MEC-10>
C (0.1 to <1 μM)

$$$$
>  <compound>
Fc1ccccc1Cn1nc(-c2ncc(Br)c(Cl)n2)cc1-c1ccon1 [Compound 52]

>  <HEK MEC-10>
D (1 to <10 μM)

$$$$
>  <compound>
O=c1[nH]c(-c2cc(-c3ccon3)n(Cc3ccccc3F)n2)ncc1S(=O)(=O)N1CCOCC1 [Compound 60]

>  <HEK MEC-10>
C (0.1 to <1 μM)

$$$$
>  <compound>
Fc1ccccc1Cn1nc(-c2ncccn2)c(F)c1-c1ccon1 [Compound 34]

>  <HEK MEC-10>
D (1 to <10 μM)

$$$$
>  <compound>
Fc1cnccc1Cn1nc(-c2ncccn2)cc1-c1ccon1 [Compound 23]

>  <HEK MEC-10>
E (10 to 50 μM)

$$$$
>  <compound>
O=c1[nH]c(-c2nn(Cc3ccccc3F)c(-c3ccon3)c2F)ncc1F [Compound 3]

>  <HEK MEC-10>
D (1 to <10 μM)

$$$$
>  <compound>
Oc1nc(-c2cc(-c3ccon3)n(Cc3ccccc3F)n2)ncc1-c1nccs1 [Compound 42]

>  <HEK MEC-10>
C (0.1 to <1 μM)

$$$$
>  <compound>
N#CC1(C(=O)Nc2cnc(-c3cc(-c4ccon4)n(Cc4cccc(F)c4F)n3)nc2N)CC1 [Compound 36]

>  <HEK MEC-10>
D (1 to <10 μM)

$$$$
>  <compound>
Oc1nc(-c2cc(-c3ccon3)n(Cc3ccccc3F)n2)ncc1-c1ncco1 [Compound 38]

>  <HEK MEC-10>
D (1 to <10 μM)

$$$$
>  <compound>
CSc1cnc(-c2cc(-c3ccon3)n(Cc3ccccc3F)n2)nc1O [Compound 29]

>  <HEK MEC-10>
E (10 to 50 μM)

$$$$
>  <compound>
Nc1nc(-c2cc(-c3ccon3)n(Cc3cccc(F)c3F)n2)ncc1NC(=O)C1(C(F)(F)F)CC1 [Compound 40]

>  <HEK MEC-10>
C (0.1 to <1 μM)

$$$$
>  <compound>
Oc1nc(-c2cc(-c3ccon3)n(Cc3ccccc3F)n2)ncc1Sc1ccccc1 [Compound 39]

>  <HEK MEC-10>
A (0.001 to <0.01 μM)

$$$$
>  <compound>
O=c1[nH]c(-c2cc(-c3ccon3)n(Cc3ccccc3F)n2)ncc1S(=O)(=O)N1CCCC1 [Compound 21]

>  <HEK MEC-10>
C (0.1 to <1 μM)

$$$$
>  <compound>
Oc1nc(-c2cc(-c3ccon3)n(Cc3ccccc3F)n2)ncc1-c1ccsc1 [Compound 45]

>  <HEK MEC-10>
E (10 to 50 μM)

$$$$
